molecular target: T1, HLA-DRB5*0101 (human); assay: competition with 125I-labelled standard peptide, purified HLA-DR, gel filtration; details: remark: other sources report otherwise
T1 chain 1: not shown
T1 chain 2: not shown
reported-metric: pIC50
In textbook form, pIC50 equals minus log to base ten of the concentration in mol/L.

Identify measured pIC50 associated with CWMIDSECRPRFREL [Her2/neu.958]
5.88
